Property: log10(IC50); scope: individual binders
- SYSTEM_UNDER_TEST: human Y4 receptor (human, UniProt P50391 1-375)
- Sequence (P50391 whole entry): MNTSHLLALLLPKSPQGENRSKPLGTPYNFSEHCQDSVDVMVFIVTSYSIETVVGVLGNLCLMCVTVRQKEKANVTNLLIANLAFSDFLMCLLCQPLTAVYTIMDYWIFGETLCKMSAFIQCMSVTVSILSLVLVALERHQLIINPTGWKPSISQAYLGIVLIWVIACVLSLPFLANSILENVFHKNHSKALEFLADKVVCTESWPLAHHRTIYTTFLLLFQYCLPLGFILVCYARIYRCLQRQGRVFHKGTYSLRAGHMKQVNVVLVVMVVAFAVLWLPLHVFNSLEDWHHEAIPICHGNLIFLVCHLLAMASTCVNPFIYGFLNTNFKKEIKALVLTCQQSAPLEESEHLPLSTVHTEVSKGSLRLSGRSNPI
- PROTOCOL_TEXT: 125I-PP displacement
EXPERIMENTAL_ENDPOINT: log10(IC50) (log10 of the value in nM)

- BINDER: "APLEPVYPGDNATPEQMAQYAADLRRYINTLTRPRY [6437]"
  log10(IC50): -0.52
- BINDER: "EAPLEPVYPGDNATPEQMAQYAADLRRYINMLTRPRY [6651]"
  log10(IC50): -0.46
- BINDER: "KPLEPVYPGDNATPEQMAQYAADLRRYINMLTRPRY [6436]"
  log10(IC50): -0.32
- BINDER: "APLEPVYPGDNATEEEAVRLFIDLRRYINMLTRPRY [6621]"
  log10(IC50): 1.20
- BINDER: "DAPLEPVYPGDNATPEQMAQYAADLRRYINMLTRPRY [6652]"
  log10(IC50): -0.44
- BINDER: "KAPLEPVYPGDNATPEQMAQYAADLRRYINMLTRPRY [compound of SEQ ID NO:52 (code 6647)]"
  log10(IC50): -0.68
- BINDER: "APLEPVYPGDNATPEQMAQYAADLKRYINMLTRPRY [6432]"
  log10(IC50): -0.44
- BINDER: "APLEPVYPGDYATPEQMAQYAADLRRYINMLTRPRY [6440]"
  log10(IC50): -0.59
- BINDER: "APLEPVYPGDNATEEELVKYFIDLRRYINMLTRPRY [6622]"
  log10(IC50): 0.08
- BINDER: "APLEPVYPGDNATPEQMAQYAADLRRYINLLTRPRY [6430]"
  log10(IC50): -0.39
- BINDER: "APLEPVYPGDNATPEQMARYAADLRRYINMLTRPRY [6606]"
  log10(IC50): -0.80
- BINDER: "APLEPVYPGDNATPEQMAHYYASLRRYINMLTRPRY [6640]"
  log10(IC50): -0.82
- BINDER: "APLEPVYPGDNATPEQMAQYAADLRRYINMLTKPRY [6452]"
  log10(IC50): -0.38
- BINDER: "AAPLEPVYPGDNATPEQMAQYAADLRRYINLLTRPRY [6656]"
  log10(IC50): -0.66
- BINDER: "APLEPVYPGDNATPEQMAQYAKDLRRYINMLTRPRY [6465]"
  log10(IC50): -0.07
- BINDER: "APLEPFYPGDNATPEQMAQYAAALRRYINMLTRPRY [6605]"
  log10(IC50): -0.89
- BINDER: "APLEPVYPGDNATPEQMAQYAADLRRYINMLTAPRY [6450]"
  log10(IC50): 0.94
- BINDER: "APLKPVYPGDNATPEQMAQYAADLRRYINMLTRPRY [5920]"
  log10(IC50): 0.65
- BINDER: "AAAPLEPVYPGDNATPEQMAQYAADLRRYINMLTRPRY [6655]"
  log10(IC50): -0.55
- BINDER: "APLEPVYPGDNATPEQMAQYAADLRKYINMLTRPRY [6431]"
  log10(IC50): -0.33
- BINDER: "APLEPVYPGDNATPEQMARYYASLRHYLNMLTRPRY [6462]"
  log10(IC50): -0.74
- BINDER: "APLEPVYPGDNATPEQMAQYAADLRHYINMLTRPRY [6438]"
  log10(IC50): -0.31
- BINDER: "APLKPVYPGDNATPEQMAQYAADLRRYINMLTRPRY [6443]"
  log10(IC50): 0.60
- BINDER: "PAPLEPVYPGDNATPEQMAQYAADLRRYINMLTRPRY [compound of SEQ ID NO:56 (code 6653)]"
  log10(IC50): -0.68
- BINDER: "APLEPVYPGDNATPEQTAQYAADLRRYINTLTRPRY [6638]"
  log10(IC50): -0.30
